Cited source for all entries: patent US7521047

target: T1, human MHC class II DR protein (DRA*0101/DRB1*0401), purified from PRIESS cells (human, UniProt P01903 26-254; P01911 30-266, limits assumed); assay: SPR (BIAcore), chip density 4000 RU MHCII
T1 construct: mature; also called HLA-DR protein; MHCII
T1 MHC II alpha: not shown
T1 MHC II beta: not shown
property label: koff

• MS-GPC-8-9 Fab (Fab, V domains shown, Fab: VH-CH1 with FLAG tag and STREP tag II, VL-CL; VH residue 1 is Q in Fab) VH: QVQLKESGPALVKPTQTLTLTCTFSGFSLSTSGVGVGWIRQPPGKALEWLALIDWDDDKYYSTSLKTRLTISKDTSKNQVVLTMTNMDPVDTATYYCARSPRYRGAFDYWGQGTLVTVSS VL: DIVLTQPPSVSGAPGQRVTISCSGSSSNIGSNYVSWYQQLPGTAPKLLIYDNNQRPSGVPDRFSGSKSGTSASLAITGLQSEDEADYYCQSYDIQLHVFGGGTKLTVLG = 0.0166 s⁻¹
• MS-GPC-8-17 Fab (Fab, V domains shown, Fab: VH-CH1 with FLAG tag and STREP tag II, VL-CL; VH residue 1 is Q in Fab; also called 7BA) VH: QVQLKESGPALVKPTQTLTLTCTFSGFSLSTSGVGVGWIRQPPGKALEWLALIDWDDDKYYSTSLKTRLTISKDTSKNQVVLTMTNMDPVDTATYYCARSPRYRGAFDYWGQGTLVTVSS VL: DIVLTQPPSVSGAPGQRVTISCSGSSSNIGSNYVSWYQQLPGTAPKLLIYDNNQRPSGVPDRFSGSKSGTSASLAITGLQSEDEADYYCQSYDFSVYVFGGGTKLTVLG = 0.00548 s⁻¹

Record koff for all entries; do not skip any.
1. MS-GPC-8-1 Fab (Fab, V domains shown, Fab: VH-CH1 with FLAG tag and STREP tag II, VL-CL; VH residue 1 is Q in Fab) VH: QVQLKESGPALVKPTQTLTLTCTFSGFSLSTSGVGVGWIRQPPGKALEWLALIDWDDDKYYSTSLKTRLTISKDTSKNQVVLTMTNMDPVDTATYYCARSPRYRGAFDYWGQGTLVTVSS VL: DIVLTQPPSVSGAPGQRVTISCSGSSSNIGSNYVSWYQQLPGTAPKLLIYDNNQRPSGVPDRFSGSKSGTSASLAITGLQSEDEADYYCQSYDFSHYVFGGGTKLTVLG
2. MS-GPC-8-18 Fab (Fab, V domains shown, Fab: VH-CH1 with FLAG tag and STREP tag II, VL-CL; VH residue 1 is Q in Fab) VH: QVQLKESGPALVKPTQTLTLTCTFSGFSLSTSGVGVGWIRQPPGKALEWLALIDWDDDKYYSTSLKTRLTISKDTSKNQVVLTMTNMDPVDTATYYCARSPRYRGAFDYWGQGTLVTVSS VL: DIVLTQPPSVSGAPGQRVTISCSGSSSNIGSNYVSWYQQLPGTAPKLLIYDNNQRPSGVPDRFSGSKSGTSASLAITGLQSEDEADYYCQSYDFSIYVFGGGTKLTVLG

Response:
1. 0.0209 s⁻¹
2. 0.0083 s⁻¹
